Data provenance is patent US20190071499A1.

- system: T1, human Fc fusion mouse IFN-α2 (mouse, UniProt P01573 24-190)
- T1 construct: bought (SinoBiological); also called murine IFN-α2; murine INFA2; not shown: human Fc
- T1 sequence (looked up): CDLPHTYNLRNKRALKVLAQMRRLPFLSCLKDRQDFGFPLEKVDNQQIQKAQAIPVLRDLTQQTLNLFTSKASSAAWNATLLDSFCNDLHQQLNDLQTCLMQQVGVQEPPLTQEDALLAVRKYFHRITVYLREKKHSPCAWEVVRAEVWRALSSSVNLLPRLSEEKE
- assay.summary: ELISA, human Fc fusion mouse IFN-α

binder | binding result
31B4 (antibody, human IgG1, kappa, V domains shown, human-derived IgG1, kappa; clonally related to 26B9; also called MAB 31B4; hMAB 31B4) VH: QIQLQESGPGLVRPTETLSLTCSVSGDSISQSSHYWAWIRQPPGKGPEWIGSVYFSSMTHYNPSLTSRVSISIDKAMNKFSLKVTSVTVADTATYYCARQALARVGAMNWFDPWGQGSLVTVSS VL: DIIMTQSPESLPVSLGEGVTINCKSSQSVFFTSSNRSCLAWYQQKPGQSPKLLIYWASTRQSGVPDRFTGSGSGTDFSLTIAGLQVEDVAVYFCQQCHASPPTFGGGTRLELRR | no binding
5D1 (antibody, human IgG1, kappa, V domains shown, human-derived IgG1, kappa; also called MAB 5D1; hMAB 5D1) VH: EVQLVQAGAEVKAPGESLRISCKVSGYTFTSYWISWVRQIPGKGLEWMVKIDPRDSYTIYNPSFQGHVSISVDKSITTVYLQWSSLQASDTAIYYCVRHYLTQSLVDYFDHWGQGTLVAVSS VL: DIQMTQSPSSLSASVGDSVTITCRASQSVSNYFHWYRQKPGKAPELLIYSASNLQTGVPSRFTGSGSGTECTLTITSLQPDDFATYYCQQTHGYPFTFGQGTKLDVRR | no binding
13B11 (antibody, human IgG1, kappa, V domains shown, human-derived IgG1, kappa; also called MAB 13B11; hMAB 13B11) VH: DVQLLQSGGGLIQPGGSLRLSCAASGFTFKDYAMSWVRQAPGKGLEWVSVISRSGNIVDYVDSVKGRFTVSRDNSNNTLFLQMDGLRADDTAIYYCAKPKDMIVVVPAGFDSWGQGTLVSVSS VL: DIQMTQFPSTLSASVGDSVTITCRASQSISAWLAWYQQKPGKAPKLLIYKGSRLENGVPSRFSGSGSGTEFTLTIGSLQPDDFATYYCQQYKTWTFGQGTKVEIKR | no binding
